Listing of entries alongside the reported composite z-score.
assayed_target: Albumin (Bos taurus)
measurement_protocol: bovine serum albumin binders on microarray, profiling panel, artefact control for SMM control protein annotation, biochemical, small-molecule microarray, Alexa647 label, 635/667 nm fluorescence (AID 1118);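 further: score merges 667 nm emission intensity and signal-to-noise per printed compound spot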
experimental_conditions: BSA-A647 binding, fluorescence 635 nm, higher = more signal
Answer with a bare number; do not write a unit.

Here is how some compounds turned out for composite z-score.
1) C=CCNC(=O)[C@@H]1[C@H]2C(=O)O[C@H](c3ccccc3)[C@H](c3ccccc3)N2[C@H](c2ccc(OCCO)cc2)[C@@]12C(=O)Nc1ccc(C#CCNC(N)=O)cc12 = 0.567
2) Cc1ccc(S[C@]2(C(=O)NC3CC3)CC(=O)N(C3Cc4ccccc4C3)[C@@H]2c2ccc(CO)cc2I)cc1 = -0.15
3) CC(C)[Si](C#Cc1ccccc1)(O[C@H](c1ccccc1)c1cn(Cc2ccccc2)nn1)C(C)C = 0.939
4) CC(=O)NCCCC[C@@H]1NC(=O)[C@H]2C[C@@H](C(=O)NCCCCCN)[C@@H](c3ccc(O)cc3)N2C1=O = 0.675
5) O=C1C2C=CC(C(O)C3CCCCC3)N(Nc3ccccc3F)C2C(=O)N1c1ccccc1 (configuration not stated) = 0.97

Quick note, composite z-score for CCOC(=O)C1=CCC(c2cccn2C(=O)OC(C)(C)C)N(S(=O)(=O)c2ccc(C)cc2)C1 (configuration not stated) landed at 0.871

Quick note, composite z-score for C[C@H]1C2[C@H](Cc3ccccc3)NC(=O)[C@]23C(=O)N[C@@H](Cc2ccccc2)C(=O)N2CCC[C@H]2C(=O)NC/C=C/CC/C=C/C3[C@@H]2O[C@]12C (some centres not stated) landed at 0.688

---

measurement_protocol: binders of probe aFGF2 on microarray, primary screen, stem cell growth factor project, biochemical, small-molecule microarray, fluorescence 635/667 (AID 1067);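 further: measures binding of biotinylated aFGF2 protein to printed compounds on slides; z-score merges feature fluorescence and signal-to-noise across triplicate slides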
experimental_conditions: higher = more signal
Listing of entries alongside the reported composite z-score.
Answer with a bare number; do not write a unit.

Here is how some compounds turned out for composite z-score.
1. O=C(c1ccccc1)N1Cc2ccccc2C[C@@]2(N=C(c3ccc(OCCCO)cc3)O[C@H]2c2ccccc2)C1=O = -0.0538
2. COC(=O)[C@H]1N=C(c2ccc(OCCCO)cc2)O[C@H]1c1ccccc1N=[N+]=[N-] = 0.184
3. CCOC(=O)C1=C[C@@H](C(C)(C)C)N(S(=O)(=O)c2ccc(C)cc2)[C@H]1c1ccc(OC)cc1 = 0.0111
4. O=C1O[C@H](c2ccccc2)[C@H](c2ccccc2)N2[C@H]1[C@@H](C(=O)N1CCN(c3ncccn3)CC1)[C@]1(C(=O)Nc3ccc(C#CC4(O)CCCCCC4)cc31)[C@H]2c1ccc(O)cc1 = -0.0125
5. COc1ccc([Si](C)(C)[C@H]2[C@H](CC(=O)N3CCC[C@H]3CO)O[C@@]3(C(=O)N(C)c4ccccc43)[C@@H]2C)cc1 = -0.0375
6. COc1ccc(C(=O)Nc2cccc(CN3C(=O)[C@]4(O[C@H](CC(=O)N(CCO)Cc5ccccc5)[C@@H]([Si](C)(C)c5ccc(OC)cc5)[C@@H]4C)c4ccccc43)c2)cc1 = -0.0695

The record that follows has no composite z-score shown yet.
Quick note, composite z-score for COc1c(C)cc(-c2nc(-c3ccccc3)c3c(c2C)CO[Si]3(C(C)C)C(C)C)cc1C landed at -0.134
